target: T1, monkey GPC3-His protein (monkey); experiment: ELISA, monkey GPC3-His coated;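 note: Plate-coated antigen at 1 µg/mL, antibody binding 2 h at 37 °C, detected with HRP-labeled secondary antibody and TMB, absorbance at 450 nm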
T1 construct: Bought recombinant protein; also called monkey GPC3 protein
Response field label: string, one of 1.0 (OD450 at 0.01 nM strictly below 0.3 OD450) or 0.0.

Please review the entries below; each comes with its answer.
Here's an entry: F2.154.1 (antibody, human IgG1, kappa, V domains shown, Human-murine chimeric antibody) VH: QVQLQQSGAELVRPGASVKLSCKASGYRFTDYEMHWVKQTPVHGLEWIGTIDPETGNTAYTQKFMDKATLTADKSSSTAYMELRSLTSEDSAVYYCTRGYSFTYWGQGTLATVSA VL: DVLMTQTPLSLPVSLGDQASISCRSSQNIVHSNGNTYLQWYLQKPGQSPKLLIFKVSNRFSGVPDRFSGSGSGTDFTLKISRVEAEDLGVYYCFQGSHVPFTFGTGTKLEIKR . Is its OD450 at 0.01 nM below 0.3 OD450? 0.0

Item F2.92.1 (antibody, human IgG1, kappa, V domains shown, Human-murine chimeric antibody) VH: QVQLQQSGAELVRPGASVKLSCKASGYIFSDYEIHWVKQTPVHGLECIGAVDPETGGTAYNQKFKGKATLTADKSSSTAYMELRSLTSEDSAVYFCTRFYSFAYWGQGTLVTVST VL: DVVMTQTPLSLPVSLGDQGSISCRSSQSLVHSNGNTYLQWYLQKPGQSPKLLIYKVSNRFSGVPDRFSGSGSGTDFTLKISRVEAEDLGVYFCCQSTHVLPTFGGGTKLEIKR : OD450 at 0.01 nM beneath 0.3 OD450, strictly? 0.0

Others:
For this binder, is OD450 at 0.01 nM lower than 0.3 OD450? F1.83.6 (antibody, human IgG1, kappa, V domains shown, Human-murine chimeric antibody) VH: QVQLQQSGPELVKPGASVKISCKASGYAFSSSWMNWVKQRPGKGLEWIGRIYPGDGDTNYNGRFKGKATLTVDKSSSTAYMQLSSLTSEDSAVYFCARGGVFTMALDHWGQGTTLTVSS VL: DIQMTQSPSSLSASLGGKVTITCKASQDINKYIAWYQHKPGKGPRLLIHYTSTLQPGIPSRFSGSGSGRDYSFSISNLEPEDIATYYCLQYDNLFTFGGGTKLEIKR 1.0

# check: OD450 at 0.01 nM < 0.3 OD450 for F3.38.7 (antibody, human IgG1, kappa, V domains shown, Human-murine chimeric antibody) VH: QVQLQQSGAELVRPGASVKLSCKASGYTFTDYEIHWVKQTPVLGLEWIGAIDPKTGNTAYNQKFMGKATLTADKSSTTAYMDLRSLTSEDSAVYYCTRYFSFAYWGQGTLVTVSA VL: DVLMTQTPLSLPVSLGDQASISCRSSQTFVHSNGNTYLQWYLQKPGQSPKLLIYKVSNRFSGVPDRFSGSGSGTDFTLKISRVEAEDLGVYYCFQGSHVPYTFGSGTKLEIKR 0.0

Consider the binder F1.42.8 (antibody, human IgG1, kappa, V domains shown, Human-murine chimeric antibody) VH: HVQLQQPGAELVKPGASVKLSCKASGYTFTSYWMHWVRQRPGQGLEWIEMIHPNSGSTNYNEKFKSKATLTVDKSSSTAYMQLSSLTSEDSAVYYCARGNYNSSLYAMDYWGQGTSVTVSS VL: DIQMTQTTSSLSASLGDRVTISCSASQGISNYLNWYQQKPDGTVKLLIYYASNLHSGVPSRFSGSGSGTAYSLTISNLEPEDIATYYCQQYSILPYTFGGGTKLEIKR . Is its OD450 at 0.01 nM strictly less than 0.3 OD450? 0.0

OD450 at 0.01 nM under 0.3 OD450? Item: F2.169.2 (antibody, human IgG1, kappa, V domains shown, Human-murine chimeric antibody) VH: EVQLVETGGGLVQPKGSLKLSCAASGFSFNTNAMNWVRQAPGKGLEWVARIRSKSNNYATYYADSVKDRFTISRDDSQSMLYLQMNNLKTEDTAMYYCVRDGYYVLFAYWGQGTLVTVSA VL: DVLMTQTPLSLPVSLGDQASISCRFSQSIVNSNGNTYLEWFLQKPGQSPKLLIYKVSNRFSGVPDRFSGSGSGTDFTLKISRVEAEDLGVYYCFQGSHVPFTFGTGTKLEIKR 1.0
